Data credit: PubChem BioAssay AID192

Quick list: T/C per entry.
test system: BDF1 mice, B16 melanoma ip, median survival T/C; test: NCI In Vivo Anticancer Drug Screen. Data for tumor model B16 Melanoma (intraperitoneal) in B6D2F1 (BDF1) mice; conditions: endpoint: median survival time; dose: 20.0 mg/kg/injection; schedule: Q01DX009 (ip); vehicle: saline with Tween-80; higher = longer survival
Inconclusive results and toxic doses are left out.

Molecule: O=Nc1c(N=O)c(N=O)c(N=O)c(N=O)c1N=O
Value kind: T/C
Value observed: 87 % of control

Molecule: CC1(C)C2CCC([CH2][Hg][Cl])C1C2 (stereo not drawn)
Value kind: T/C
Value observed: 96 % of control

Molecule: C=C(C)C(=O)OC1CCC2(C)C(CCC3C2CCC2(C)C(c4ccc(=O)oc4)CC4OC432)C1 (stereo not drawn)
Value kind: T/C
Value observed: 102 % of control

Molecule: CC[C@@H]1C[C@H]2CC3c4[nH]c5ccccc5c4CCN(C2)C31
Value kind: T/C
Value observed: 97 % of control

Molecule: [Cl][Pt+2][Cl].[NH-]c1cc(Cl)c(Cl)c(Cl)c1[NH-]
Value kind: T/C
Value observed: 113 % of control

T/C measured on `Cc1noc2c1ncc[n+]2[O-]` = 116 % of control

T/C measured on `[Cl][Pt+2][Cl].[NH-]c1ccc(Cl)cc1[NH-]` = 153 % of control

T/C measured on CN1C2C=C(c3ccccc3)C(Br)C1CC2 (stereo not drawn) = 98 % of control
